Entries and their pIC50 values follow.
Target: K103NNY181C mutant reverse transcriptase (Human immunodeficiency virus type 1 group M subtype B, UniProt P04585, K690N/Y768C)
Construct: mutations that occur in the reverse transcriptase segment of the pol gene
Assay: Reverse transcriptase enzymatic assay (PicoGreen), K103N/Y181C mutant RT
Assay type: biochemical, HIV-1
Settings: IC50 mut, mutant reverse transcriptase, enzymatic assay of Example 24
pIC50: −log10 of the molar value.
OBSERVABLE: pIC50

ITEM SMILES	OBSERVABLE	VAL
Cc1ccc(-n2nnnc2SCC(=O)Nc2ccc(-c3ccc(C(=O)O)cc3)cc2Cl)c(Cl)c1	pIC50	7.28
Cc1ccc(-n2nnnc2SCC(=O)Nc2ccc(-c3csc(N)n3)cc2Cl)c(Cl)c1	pIC50	6.73
O=C(CSc1nnnn1-c1cc(C(F)(F)F)ccc1Cl)Nc1ccc(-c2ccc(OCCN3CCCC3)cc2)c(F)c1Cl	pIC50	7.60
C/C(=C\c1ccc(NC(=O)CSc2nnnn2-c2ccc(C3CC3)cc2Cl)c(Cl)c1)C(=O)O	pIC50	7.03
O=C(COc1ccc(NC(=O)CSc2nnnn2-c2ccc(C3CC3)cc2Cl)c(Cl)c1)NCCc1ccc[n+]([O-])c1	pIC50	6.32
O=C(CSc1nnnn1-c1ccc(C2CC2)cc1Cl)Nc1ccc(-c2ccc(OCCN3CCCC3)cc2)cc1Cl	pIC50	8.16
CC(C)(C)c1ccc(-n2nnnc2SCC(=O)Nc2ccc(C(=O)NC3CC3)cc2Cl)c(Cl)c1	pIC50	7.51
